system: Wolbachia pipientis; experiment: Anti-Wolbachia Cell-Based Screen; type: functional; design: scale not given: in the data most compounds retested in dose-response had high values; settings: 5 µM
Screen size: about 48,000 compounds; about 13,000 (27%) showed an effect of 50% or more. This is one part of the list.
Value Type: Percent Effect (%)

- Compound: "CC(C)CNC(=O)c1cc(C2CC2)nc2onc(C3CCNCC3)c12"
  Unit Of Measure: "%"
  Test Result: 97.28
- Compound: "O=C(c1cc(Cl)c(Br)[nH]1)N1CCN(Cc2ccco2)CC1"
  Unit Of Measure: "%"
  Test Result: 4.507
- Compound: "CC(=O)NCc1ccc(S(=O)(=O)NC(=O)c2ccc3c(c2)CCO3)s1"
  Unit Of Measure: "%"
  Test Result: -11.39
- Compound: "O=C(CSC1CCc2ccccc2NC1=O)NCCc1ccco1 (stereo not drawn)"
  Unit Of Measure: "%"
  Test Result: 9.555
- Compound: "CC(C)n1ccnc1C1CCN(C(=O)c2ccccc2N(C)C)CC1"
  Unit Of Measure: "%"
  Test Result: -47.93
- Compound: "O=C(c1cc(C2CC2)nc2onc(-c3ccccc3)c12)N1CCOCC1"
  Unit Of Measure: "%"
  Test Result: 3.139
- Compound: "O=C(NCCc1ccc2c(c1)OCO2)C1CCCN(Cc2ccco2)C1 (stereo not drawn)"
  Unit Of Measure: "%"
  Test Result: -5.327
- Compound: "CCC(CC)NC(=O)NCc1ccnc(-n2ccnc2C)c1"
  Unit Of Measure: "%"
  Test Result: -7.702
- Compound: "O=C1C(NS(=O)(=O)c2cc(F)cc(F)c2)CCN1Cc1ccccc1 (stereo not drawn)"
  Unit Of Measure: "%"
  Test Result: -1.299
- Compound: "CCCN1CCCC2(CCN(S(=O)(=O)N3CCC(OC)CC3)C2)C1=O (stereo not drawn)"
  Unit Of Measure: "%"
  Test Result: -17.89
- Compound: "O=S(=O)(Cc1ccc(F)cc1)NCc1ccco1"
  Unit Of Measure: "%"
  Test Result: 9.126
- Compound: "CCN1CCN(c2ccc(CNC(=O)c3ccc(Cl)o3)cn2)CC1"
  Unit Of Measure: "%"
  Test Result: 4.733
- Compound: "O=C1CCNc2cc3c(cc2CN1Cc1ccco1)OCO3"
  Unit Of Measure: "%"
  Test Result: 103.2
- Compound: "CCN1C[C@@H]2CN(C(=O)NCc3ccccc3)CCC[C@]2(C(=O)O)C1.O=C(O)C(F)(F)F"
  Unit Of Measure: "%"
  Test Result: -6.91
- Compound: "CN1C[C@H](O)[C@]2(CCN(C(=O)NCc3ccccc3)C2)S1(=O)=O"
  Unit Of Measure: "%"
  Test Result: 101.7
- Compound: "CC(C)NC(=O)c1cc2c([nH]c1=O)CC(c1cccs1)CC2=O (stereo not drawn)"
  Unit Of Measure: "%"
  Test Result: -15.67
- Compound: "CCN(CC)C(=O)C(c1ccccc1)N1CCn2c(C)nnc2C1 (stereo not drawn)"
  Unit Of Measure: "%"
  Test Result: -5.766
- Compound: "O=C(c1cc(Br)c[nH]1)N1CCN(Cc2ccco2)CC1"
  Unit Of Measure: "%"
  Test Result: -4.103
- Compound: "CN1CC(c2ccccc2)CC2(CCN(C(=O)c3ccccc3)CC2)C1 (stereo not drawn)"
  Unit Of Measure: "%"
  Test Result: 1.137
- Compound: "O=C1CCNc2ccc(F)cc2CN1Cc1ccccc1"
  Unit Of Measure: "%"
  Test Result: 102.2
- Compound: "O=C(CN1CCc2ccccc2C1)NCc1ccco1"
  Unit Of Measure: "%"
  Test Result: -0.1453
- Compound: "CCc1nc(C)c(C(=O)N2C[C@H]3CC[C@@H]2CN(S(=O)(=O)N(C)C)C3)s1"
  Unit Of Measure: "%"
  Test Result: 8.94
- Compound: "CC1(C)COCCN1C(=O)Cc1csc(Cc2ccccn2)n1"
  Unit Of Measure: "%"
  Test Result: -7.387

* * *

tested on: Wolbachia pipientis; test: Anti-Wolbachia Cell-Based Screen; assay type: functional; set-up: scale not given: in the data most compounds retested in dose-response had high values; conditions: 5 µM
In all, about 48,000 compounds went through this assay and about 13,000 (27%) showed an effect of 50% or more. Some of the results follow.
The compounds listed here are annotated with their Percent Effect.

- Compound: "CS(=O)(=O)c1ccccc1N[C@@H]1c2ccccc2C[C@@H]1O"
  Percent Effect [%]: -8.17
- Compound: "CCN(Cc1ccc(Cl)s1)S(=O)(=O)CCOC"
  Percent Effect [%]: -12.02
- Compound: "Cc1cccn2cc(CN3CCCC(c4ccn[nH]4)C3)nc12 (configuration not stated)"
  Percent Effect [%]: 3.062
- Compound: "CC(C)n1cc(C(=O)NCC(CO)Cc2cccs2)cn1 (configuration not stated)"
  Percent Effect [%]: 100.7
- Compound: "CSCc1nc(CNC(=O)c2cnn(C(C)C)c2)cs1"
  Percent Effect [%]: -8.764
- Compound: "CC(C)n1cc(C(=O)NCCc2cn3ccsc3n2)cn1"
  Percent Effect [%]: -2.025
- Compound: "Cc1cc(C)n(-c2ccc(C(=O)NCc3cncn3CC(C)C)cc2)n1"
  Percent Effect [%]: -4.296
- Compound: "Cc1cc(C)n(-c2ccc(C(C)NS(=O)(=O)CCCS(C)(=O)=O)cc2)n1 (configuration not stated)"
  Percent Effect [%]: 5.826
- Compound: "O=C(COCC1CC1)N1CCCC(n2cccn2)C1 (configuration not stated)"
  Percent Effect [%]: 4.687
- Compound: "Cc1cc(C)n(-c2ccc(C(=O)NCC(CO)Cc3ccco3)cc2)n1 (configuration not stated)"
  Percent Effect [%]: 116.9
- Compound: "CC(CNC(=O)N1CCC(CO)CC1)Cc1cccs1 (configuration not stated)"
  Percent Effect [%]: -8.447
- Compound: "Cc1cc(C)n(-c2ccc(C(=O)NCC(CO)Cc3cccs3)cc2)n1 (configuration not stated)"
  Percent Effect [%]: 87.25

* * *

test system: Wolbachia pipientis; test: Anti-Wolbachia Cell-Based Screen; assay type: functional; parameters: scale not given: in the data most compounds retested in dose-response had high values; conditions: 5 µM
Hit rate of the full screen: of about 48,000 compounds, about 13,000 (27%) showed an effect of 50% or more. The list shows a part of the results.
Value Type: Percent Effect (%)

- Compound: "CCOCC1CN(S(=O)(=O)N(C)C)Cc2cnn(CC3CC3)c21.O=C(O)C(F)(F)F (stereo unspecified)"
  Test Result: -12.89
- Compound: "CCC(C)CNCC1(S(C)(=O)=O)CCOCC1 (stereo unspecified)"
  Test Result: -24.39
- Compound: "Cc1cn[nH]c1C1CCCCN1C(=O)CCc1ccc(F)cc1 (stereo unspecified)"
  Test Result: 129.4
- Compound: "CCS(=O)(=O)N1Cc2ncn(CC3CC3)c2C(COCC2CC2)C1.O=C(O)C(F)(F)F (stereo unspecified)"
  Test Result: 98
- Compound: "CC(C)OC(=O)N1CCC(Cc2cccc(C(N)=O)c2)C1 (stereo unspecified)"
  Test Result: 0.346
- Compound: "COCCC(=O)N1CCCCC1c1ccc(F)cc1 (stereo unspecified)"
  Test Result: -2.369
- Compound: "Cn1cnc2c1C(COCC1CC1)CN(C(=O)c1cccs1)C2 (stereo unspecified)"
  Test Result: -12.17
- Compound: "NC(=O)c1noc(Cn2ccc3ccccc3c2=O)n1"
  Test Result: -17.09
- Compound: "CCS(=O)(=O)N1Cc2ncn(C)c2C(COCC2CCOCC2)C1.O=C(O)C(F)(F)F (stereo unspecified)"
  Test Result: -11.73
- Compound: "COCC1CN(S(=O)(=O)N(C)C)Cc2ncn(CC3CC3)c21.O=C(O)C(F)(F)F (stereo unspecified)"
  Test Result: 108.7
- Compound: "CCc1nc(CNC(=O)C2CCC(=O)N(Cc3ccccc3F)C2)no1 (stereo unspecified)"
  Test Result: -29.1

* * *

system: Wolbachia pipientis; assay: Anti-Wolbachia Cell-Based Screen; assay type: functional; design: scale not given: in the data most compounds retested in dose-response had high values; conditions: 5 µM
Out of some 48,000 compounds screened, about 13,000 (27%) showed an effect of 50% or more. Some of the results follow.
Measured Percent Effect, listed per entry.
Value Type: Percent Effect (%)

- Compound: "Fc1cccc2ncnc(NCCCc3ccncc3)c12"
  Test Result: -47.88
- Compound: "Cc1cn2c(n1)CCC(NC(=O)c1cnc(C)nc1C(C)C)C2 (stereo not drawn)"
  Test Result: 1.666
- Compound: "CCOc1ccc(C(=O)N2CCCC2c2cnn(C)c2)cn1 (stereo not drawn)"
  Test Result: 110.2
- Compound: "Cc1cn2c(n1)CCC(NC(=O)c1cncnc1C)C2 (stereo not drawn)"
  Test Result: 122.4
- Compound: "CC(C)CCN1CCc2c(C(=O)N(C)Cc3ccccn3)nn(C)c2C1.O=C(O)C(F)(F)F.O=C(O)C(F)(F)F.O=C(O)C(F)(F)F"
  Test Result: 7.035
- Compound: "Cn1cc(CNCCOc2ccc(F)c(F)c2)c(-c2cccnc2)n1"
  Test Result: 7.876
- Compound: "Cc1noc(C)c1-c1cccc(CC2CCN(C(=O)c3cscn3)C2)n1 (stereo not drawn)"
  Test Result: 131.4
- Compound: "Cc1cn2c(n1)CCC(NC(=O)c1ccc(CS(C)(=O)=O)cc1)C2 (stereo not drawn)"
  Test Result: 1.181
- Compound: "Cc1ccc(CN2CCc3ncnc(-c4ccc(F)cc4)c3CC2)o1.O=C(O)C(F)(F)F"
  Test Result: -0.3748
- Compound: "COc1ccc(OC)c(C(=O)N2C[C@H]3CC[C@@H]2CN(C)C3)c1"
  Test Result: 19.05
- Compound: "Cc1cn2c(n1)CCC(NC(=O)c1c[nH]c(C)n1)C2 (stereo not drawn)"
  Test Result: 3.74
- Compound: "COCCn1cc(C(=O)N2CCCC2c2cnn(C)c2)ccc1=O (stereo not drawn)"
  Test Result: -26.74
- Compound: "c1ccc2c(c1)CN(c1ncnc3sc4c(c13)CCNC4)CCO2"
  Test Result: -13.02
- Compound: "CN(C)S(=O)(=O)N1C[C@@H]2CC[C@H](C1)N(Cc1ccc3nsnc3c1)C2"
  Test Result: 4.433
- Compound: "COc1ccc(OC)c(C(=O)N2CCC(Nc3cccnc3)CC2)c1"
  Test Result: 94.46
- Compound: "COc1cc(C(=O)N2CCC(Nc3cccnc3)CC2)ccc1C"
  Test Result: 66.95
- Compound: "Cc1cn2c(n1)CCC(NC(=O)c1nc(C)ncc1Cl)C2 (stereo not drawn)"
  Test Result: -6.875
- Compound: "O=C(CCCc1nnc(-c2ccccc2)o1)N1CCN(CCO)CC1"
  Test Result: -6.561
- Compound: "Cc1cn2c(n1)CCC(NC(=O)c1cc(C(C)C)no1)C2 (stereo not drawn)"
  Test Result: 2.478
- Compound: "Cc1cnn(CC2CCCN2C(=O)c2ccc(OC(C)C)nc2)c1 (stereo not drawn)"
  Test Result: -7.33
- Compound: "CC(C)Oc1ncnc2c1CCN(Cc1ccco1)CC2.O=C(O)C(F)(F)F"
  Test Result: 2.851
- Compound: "COc1ccc(C(=O)N2CCCC2c2cnn(C)c2)cn1 (stereo not drawn)"
  Test Result: 112.3
- Compound: "Cc1ncc(C(=O)NC2CCc3nccn3C2)c(C(C)C)n1 (stereo not drawn)"
  Test Result: 126.1
